- Test system: Venturia inaequalis
- assay explanation: Venturia test (apple)/protective
- Type: in vivo
- details: 288 h, protective, evaluated 12 days after inoculation, read-out: Efficacy in %
measure: pest or weed control at 250 g/ha

O=S1(=O)CSC(Oc2ccccc2Cl)=N1 ≥ 90%
O=S1(=O)CSC(Oc2ccc3oc(=S)sc3c2)=N1 ≥ 90%
O=S1(=O)CSC(Oc2ccccc2OC(F)(F)F)=N1 ≥ 90%
O=S1(=O)CSC(Oc2cccc(F)c2)=N1 ≥ 90%
C/C(=N/OC(C)(C)C)c1cccc(OC2=NS(=O)(=O)CS2)c1 ≥ 90%

Reported pest or weed control at 250 g/ha for Cc1ccc(Cl)c(OC2=NS(=O)(=O)CS2)c1 was ≥ 90%

Reported pest or weed control at 250 g/ha for CC(C)(C)c1cccc(OC2=NS(=O)(=O)CS2)c1 was ≥ 90%

Reported pest or weed control at 250 g/ha for O=S1(=O)CSC(Oc2ccc(Cl)c(Cl)c2)=N1 was ≥ 90%

Reported pest or weed control at 250 g/ha for C/C(=N/OC(C)(C)C)c1ccc(OC2=NS(=O)(=O)CS2)cc1 was ≥ 90%
